biological target: Syk kinase (Homo sapiens); construct: purchased; assay: Syk kinase inhibition, Caliper LabChip off-chip mobility-shift kinase assay; assay type: biochemical; details: read-out: Syk Enzyme IC50
quantity.measured: IC50 (nM)

See these solved cases before continuing.
compound | unit.abbrev | observed.value
CCN1CCN(c2n[nH]c3cc(Nc4nc(-c5cncc(OC)n5)cc5cc[nH]c(=O)c45)ccc23)CC1 | nM | 11
O=c1[nH]ccc2cc(C3CCOCC3)nc(Nc3ccc(N4CCOCC4)cc3)c12 | nM | 58
COc1cncc(-c2cc3cc[nH]c(=O)c3c(Nc3ccc(C4CN(CCC#N)C4)cc3)n2)n1 | nM | 32
COc1cncc(-c2cc3cc[nH]c(=O)c3c(Nc3ccc(C4CCN(CC(O)CO)CC4)c(C)c3)n2)n1 (stereo not shown) | nM | 3
Cc1ccnc(Nc2cc3ccn(C)c(=O)c3c(Nc3cccc(C(N)=O)c3)n2)c1 | nM | 136

1: Cc1cc(Nc2nc(-c3cncc(NC4CC4)n3)cc3cc[nH]c(=O)c23)ccc1C1CCN(CCC#N)CC1
2: CC[C@H](C)Nc1nc(-c2cnc(N)nc2)cc2cc[nH]c(=O)c12
// returns 1 or 2 , whichever has the lower IC50 Kindly state the label of the option you pick.
1

Origin of measurements: patent US20110053897A1
